Origin of the recorded values: patent US20260184782A1

- target.or.system: T1, recombinant human TIGIT (human, UniProt Q495A1 22-141, limits assumed)
- T1 construct: recombinant human TIGIT used in Carterra SPR; also called hTIGIT
- T1 sequence (looked up): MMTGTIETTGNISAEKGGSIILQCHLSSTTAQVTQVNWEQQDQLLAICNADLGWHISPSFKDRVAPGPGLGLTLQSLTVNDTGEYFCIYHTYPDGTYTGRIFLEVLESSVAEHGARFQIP
- experiment.notes: SPR Carterra, average
- Procedure: Binding affinities of VHH-Fc proteins to recombinant human TIGIT were measured by SPR using a Carterra instrument (Table 10A). […] Average values reported from measurements from 1-2 samples.
measure.name: koff
Number first, unit second: that is the form wanted.

Ask: Quote koff reported for TIGIT-SC44 (Fc fusion, VHH-Fc fusion in assay) VHH: EVQLVESGGGLVQPGGSLRLSCAASGSIFGLGAMGWFRQAPGKERELVAITWGGSTTLYADSVKGRFTISADNSKNTAYLQMNSLKPEDTAVYYCATDQGQWLFDFWGQGTLVTVSS please.
Reply: 0.0124 s⁻¹

Ask: Give reported koff value for TIGIT-SC105 (Fc fusion, VHH-Fc fusion in assay) VHH: EVQLVESGGGLVQPGGSLRLSCAASGFAFSRYGMGWFRQAPGKERELVATIGWSGSSTFYADSVKGRFTISADNSKNTAYLQMNSLKPEDTAVYYCARDGGPYYYGLDVWGQGTLVTVSS
Reply: 0.0116 s⁻¹
